Values compiled from patent US12139492B2.

# MEASURED TARGET: BTK (Homo sapiens)
# TEST PROTOCOL: Degradation of BTK protein in Namalwa cells (Western blot; DC50, Dmax)
MEASURED ATTRIBUTE: Dmax

Form field Dmax, entry NC(=O)c1c(-c2ccc(Oc3ccccc3)cc2)nn2c1NCC[C@H]2C1CCN(C2CCN(CCN3CCN(c4ccc5c(c4)CN(C4CCC(=O)NC4=O)C5=O)CC3)CC2)CC1 (some centres unmarked) : > 75%

Form field Dmax, entry NC(=O)c1c(-c2ccc(Oc3ccccc3)cc2)nn2c1NCCC2C1CCN(C(=O)N2CCC(CN3CCN(c4ccc5c(c4)CN(C4CCC(=O)NC4=O)C5=O)CC3)CC2)CC1 (centres unmarked) : > 90%

Form field Dmax, entry NC(=O)c1c(-c2ccc(Oc3ccccc3)cc2)nn2c1NCCC2C1CCN(C2CCN(C(=O)N3CCN(C4CCN(c5ccc6c(c5)C(=O)N(C5CCC(=O)NC5=O)C6=O)CC4)CC3)CC2)CC1 (centres unmarked) : > 90%

Form field Dmax, entry NC(=O)c1c(-c2ccc(Oc3ccccc3)cc2)nn2c1NCCC2C1CCN(CC2CCN(CC3CCN(c4ccc5c(c4)CN(C4CCC(=O)NC4=O)C5=O)CC3)CC2)CC1 (centres unmarked) : > 90%

Form field Dmax, entry Nc1ncnc2c1c(-c1ccc(Oc3ccccc3)cc1)nn2C1CCN(C2CCN(C(=O)N3CCN(c4ccc5c(c4)CN(C4CCC(=O)NC4=O)C5=O)CC3)CC2)CC1 (centres unmarked) : > 50%

* * *

# MEASURED TARGET: BTK (Homo sapiens, UniProt Q06187)
# Sequence (Q06187 whole entry): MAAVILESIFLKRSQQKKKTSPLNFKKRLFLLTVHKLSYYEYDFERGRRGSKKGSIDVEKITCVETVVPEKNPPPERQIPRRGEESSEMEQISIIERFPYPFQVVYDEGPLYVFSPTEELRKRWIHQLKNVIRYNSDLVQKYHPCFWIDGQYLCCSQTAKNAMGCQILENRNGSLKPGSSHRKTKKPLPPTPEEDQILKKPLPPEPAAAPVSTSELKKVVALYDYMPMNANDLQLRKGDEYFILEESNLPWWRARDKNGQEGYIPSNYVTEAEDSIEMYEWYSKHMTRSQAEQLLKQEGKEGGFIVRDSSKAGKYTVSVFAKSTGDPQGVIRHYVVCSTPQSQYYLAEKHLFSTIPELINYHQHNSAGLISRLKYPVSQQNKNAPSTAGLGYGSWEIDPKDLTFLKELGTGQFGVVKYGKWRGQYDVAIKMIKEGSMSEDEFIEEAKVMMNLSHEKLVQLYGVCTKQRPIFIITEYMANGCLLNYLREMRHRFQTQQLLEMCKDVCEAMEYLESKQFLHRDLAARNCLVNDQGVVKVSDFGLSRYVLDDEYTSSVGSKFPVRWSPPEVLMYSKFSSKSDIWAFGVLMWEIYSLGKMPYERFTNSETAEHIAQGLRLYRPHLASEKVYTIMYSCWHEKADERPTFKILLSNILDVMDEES
# TEST PROTOCOL: Degradation of BTK protein in Namalwa cells (Western blot; DC50, Dmax)
MEASURED ATTRIBUTE: Dmax

Form field Dmax, entry NC(=O)c1c(-c2ccc(Oc3ccccc3)cc2)nn2c1NCCC2C1CCN(CC2CCN(CC3CCN(c4ccc5c(c4)C(=O)N(C4CCC(=O)NC4=O)C5=O)CC3)CC2)CC1 (centres unmarked) [Compound 313] : > 90%

Form field Dmax, entry Nc1ncnc2c1c(-c1ccc(Oc3ccccc3)cc1)nn2C1CCN(C2CCN(C(=O)N3CCC(c4ccc5c(c4)C(=O)N(C4CCC(=O)NC4=O)C5=O)CC3)CC2)CC1 (centres unmarked) [Compound 227] : > 50%

Form field Dmax, entry Nc1ncnc2c1c(-c1ccc(Oc3ccccc3)cc1)nn2C1CCN(C2CCN(CC3CCN(c4ccc5c(c4)C(=O)N(C4CCC(=O)NC4=O)C5=O)CC3)CC2)CC1 (centres unmarked) [Compound 213] : > 90%

Form field Dmax, entry Nc1ncnc2c1c(-c1ccc(Oc3ccccc3)cc1)nn2C1CCN(CC2CCN(CCN3CCC(c4ccc5c(c4)CN(C4CCC(=O)NC4=O)C5=O)CC3)CC2)CC1 (centres unmarked) [Compound 206] : > 90%

Form field Dmax, entry NC(=O)c1c(-c2ccc(Oc3ccccc3)cc2)nn2c1NCCC2C1CCN(CC2CCN(C(=O)N3CCN(CC4CCN(c5ccc6c(c5)C(=O)N(C5CCC(=O)NC5=O)C6=O)CC4)CC3)CC2)CC1 (centres unmarked) [Compound 371] : > 90%

Form field Dmax, entry NC(=O)c1c(-c2ccc(Oc3ccccc3)cc2)nn2c1NCC[C@H]2C1CCN(C(=O)N2CCC(CC3CCN(c4ccc5c(c4)C(=O)N(C4CCC(=O)NC4=O)C5=O)CC3)CC2)CC1 (some centres unmarked) [Compound 293] : > 90%

Form field Dmax, entry NC(=O)c1c(-c2ccc(Oc3ccccc3)cc2)nn2c1NCC[C@H]2C1CCN(C(=O)N2CCC(CCN3CCC(c4ccc5c(c4)CN(C4CCC(=O)NC4=O)C5=O)CC3)CC2)CC1 (some centres unmarked) [Compound 302] : > 75%

Form field Dmax, entry Nc1ncnc2c1c(-c1ccc(Oc3ccccc3)cc1)nn2[C@@H]1CCCN(C2CCN(C(=O)N3CCC(CCCC4CCN(c5ccc6c(c5)CN(C5CCC(=O)NC5=O)C6=O)CC4)CC3)CC2)C1 (some centres unmarked) [Compound 196] : > 75%

Form field Dmax, entry NC(=O)c1c(-c2ccc(Oc3ccccc3)cc2)nn2c1NCCC2C1CCN(C2CCN(C(=O)N3CCN(CC4CCN(c5ccc6c(c5)CN(C5CCC(=O)NC5=O)C6=O)CC4)CC3)CC2)CC1 (centres unmarked) [Compound 352] : > 90%

Form field Dmax, entry NC(=O)c1c(-c2ccc(Oc3ccccc3)cc2)nn2c1NCC[C@H]2C1CCN(C(=O)N2CCN(CC3CCN(c4ccc5c(c4)C(=O)N(C4CCC(=O)NC4=O)C5=O)CC3)CC2)CC1 (some centres unmarked) [Compound 289] : > 90%

Form field Dmax, entry NC(=O)c1c(-c2ccc(Oc3ccccc3)cc2)nn2c1NCCC2C1CCN(CC2CCN(CCC3CCN(c4ccc5c(c4)C(=O)N(C4CCC(=O)NC4=O)C5=O)CC3)CC2)CC1 (centres unmarked) [Compound 317] : > 75%

Form field Dmax, entry NC(=O)c1c(-c2ccc(Oc3ccccc3)cc2)nn2c1NCCC2C1CCN(C2CCN(C(=O)N3CCC(CC4CCN(c5ccc6c(c5)C(=O)N(C5CCC(=O)NC5=O)C6=O)CC4)CC3)CC2)CC1 (centres unmarked) [Compound 353] : > 90%

Form field Dmax, entry NC(=O)c1c(-c2ccc(Oc3ccccc3)cc2)nn2c1NCCC2C1CCN(C(=O)N2CCC(CN3CCC(c4ccc5c(c4)CN(C4CCC(=O)NC4=O)C5=O)CC3)CC2)CC1 (centres unmarked) [Compound 280] : > 90%

Form field Dmax, entry NC(=O)c1c(-c2ccc(Oc3ccccc3)cc2)nn2c1NCCC2C1CCN(C2CCN(CCN3CCN(c4ccc5c(c4)C(=O)N(C4CCC(=O)NC4=O)C5=O)CC3)CC2)CC1 (centres unmarked) [Compound 307] : > 75%

Form field Dmax, entry Nc1ncnc2c1c(-c1ccc(Oc3ccccc3)cc1)nn2C1CCN(C2CCN(C(=O)N3CCC(CCCN4CCC(c5ccc6c(c5)C(=O)N(C5CCC(=O)NC5=O)C6=O)CC4)CC3)CC2)CC1 (centres unmarked) [Compound 267] : > 90%

Form field Dmax, entry Nc1ncnc2c1c(-c1ccc(Oc3ccccc3)cc1)nn2C1CCN(C2CCN(C(=O)N3CCC(CCCC4CCN(c5ccc6c(c5)C(=O)N(C5CCC(=O)NC5=O)C6=O)CC4)CC3)CC2)CC1 (centres unmarked) [Compound 265] : > 75%

Form field Dmax, entry Nc1ncnc2c1c(-c1ccc(Oc3ccccc3)cc1)nn2C1CCN(C2CCN(C(=O)N3CCN(CCN4CCN(c5ccc6c(c5)C(=O)N(C5CCC(=O)NC5=O)C6=O)CC4)CC3)CC2)CC1 (centres unmarked) [Compound 245] : > 75%

Form field Dmax, entry NC(=O)c1c(-c2ccc(Oc3ccccc3)cc2)nn2c1NCC[C@H]2C1CCN(C(=O)N2CCC(CC3CCN(c4ccc5c(c4)CN(C4CCC(=O)NC4=O)C5=O)CC3)CC2)CC1 (some centres unmarked) [Compound 294] : > 90%

Form field Dmax, entry Nc1ncnc2c1c(-c1ccc(Oc3ccccc3)cc1)nn2C1CCN(C2CCN(CC3CCN(c4ccc5c(c4)C(=O)N([C@@H]4CCC(=O)NC4=O)C5=O)CC3)CC2)CC1 [Compound 213a] : > 90%

Form field Dmax, entry NC(=O)c1c(-c2ccc(Oc3ccccc3)cc2)nn2c1NCCC2C1CCN(C2CCN(C(=O)N3CCC(N4CCN(c5ccc6c(c5)CN(C5CCC(=O)NC5=O)C6=O)CC4)CC3)CC2)CC1 (centres unmarked) [Compound 342] : > 90%

* * *

# MEASURED TARGET: BTK (Homo sapiens, UniProt Q06187)
# TEST PROTOCOL: Degradation of BTK protein in Namalwa cells (Western blot; DC50, Dmax)
# EXPERIMENTAL SETUP: read-out: Dmax (BTK degradation)
I'd appreciate it if you could supply Dmax values for the items below.

The value of Dmax recorded for Nc1ncnc2c1c(-c1ccc(Oc3ccccc3)cc1)nn2C1CCN(CCN2CCC(CN3CCC(c4ccc5c(c4)oc(=O)n5C4CCC(=O)NC4=O)CC3)C2)CC1 (stereo not drawn) [Compound 542] when tested on BTK (Homo sapiens, UniProt Q06187) reads > 75%

The value of Dmax recorded for NC(=O)c1c(-c2ccc(Oc3ccccc3)cc2)nn2c1NCC[C@H]2C1CCN(CC2CCN(C(=O)N3CCC(C4CCN(c5ccc6c(c5)CN(C5CCC(=O)NC5=O)C6=O)CC4)CC3)CC2)CC1 (stereo partly drawn) [Compound 406] when tested on BTK (Homo sapiens, UniProt Q06187) reads > 90%

The value of Dmax recorded for Nc1ncnc2c1c(-c1ccc(Oc3ccccc3)cc1)nn2C1CCN(C2CCN(CCN3CCN(c4ccc(N5CCC(=O)NC5=O)cc4)CC3)C2)CC1 (stereo not drawn) [Compound 575] when tested on BTK (Homo sapiens, UniProt Q06187) reads > 90%

* * *

# MEASURED TARGET: UniProt Q06187
# TEST PROTOCOL: Degradation of BTK protein in Namalwa cells (Western blot; DC50, Dmax)
I'd appreciate it if you could supply Dmax values for the items below.

Form field Dmax, entry Nc1ncnc2c1c(-c1ccc(Oc3ccccc3)cc1)nn2C1CCN(CC2CCN(CCN3CCN(c4ccc5c(c4)C(=O)N(C4CCC(=O)NC4=O)C5=O)CC3)CC2)CC1 (stereo not drawn) : > 90%

Form field Dmax, entry NC(=O)c1c(-c2ccc(Oc3ccccc3)cc2)nn2c1NCCC2C1CCN(C(=O)N2CCN(CC3CCN(c4ccc5c(c4)C(=O)N(C4CCC(=O)NC4=O)C5=O)CC3)CC2)CC1 (stereo not drawn) : > 90%

Form field Dmax, entry NC(=O)c1c(-c2ccc(Oc3ccccc3)cc2)nn2c1NCCC2C1CCN(C(=O)N2CCC(CCN3CCC(c4ccc5c(c4)C(=O)N(C4CCC(=O)NC4=O)C5=O)CC3)CC2)CC1 (stereo not drawn) : > 75%
